Data origin: patent US20260028403A1

assayed_target: huCD28 (human, UniProt P10747 19-152, limits assumed)
procedure_details: SPR, OAA format
Consider the following partition of reported Fold-change from WT into named classes: zone 1: < 0.9 fold; zone 2: ≥ 0.9 fold and < 4 fold; zone 3: ≥ 4 fold

binder	class_name
v37875 (antibody, V domains shown, OAA format as v34891; also called huTN228 D1068A (VL) OAA) VH: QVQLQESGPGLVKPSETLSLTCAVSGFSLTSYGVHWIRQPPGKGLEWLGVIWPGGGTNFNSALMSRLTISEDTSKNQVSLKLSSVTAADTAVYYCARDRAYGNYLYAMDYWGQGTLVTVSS VL: DIQMTQSPSSLSASVGDRVTITCRASESVEYYVTSLMQWYQQKPGKAPKLLIYAASNVASGVPSRFSGSGSGTDFTLTISSLQPEDIATYYCQQSRKVPFTFGGGTKVEIK	zone 1
v37874 (antibody, V domains shown, OAA format; also called huTN228 N1066A (VL) OAA) VH: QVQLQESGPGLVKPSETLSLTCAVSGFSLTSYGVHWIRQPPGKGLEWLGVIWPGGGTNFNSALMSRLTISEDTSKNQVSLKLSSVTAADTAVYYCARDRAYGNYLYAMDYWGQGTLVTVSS VL: DIQMTQSPSSLSASVGDRVTITCRASESVEYYVTSLMQWYQQKPGKAPKLLIYAASAVDSGVPSRFSGSGSGTDFTLTISSLQPEDIATYYCQQSRKVPFTFGGGTKVEIK	zone 1
v37856 (antibody, V domains shown, OAA format; also called huTN228 N1111AA (VH) OAA) VH: QVQLQESGPGLVKPSETLSLTCAVSGFSLTSYGVHWIRQPPGKGLEWLGVIWPGGGTNFNSALMSRLTISEDTSKNQVSLKLSSVTAADTAVYYCARDRAYGAYLYAMDYWGQGTLVTVSS VL: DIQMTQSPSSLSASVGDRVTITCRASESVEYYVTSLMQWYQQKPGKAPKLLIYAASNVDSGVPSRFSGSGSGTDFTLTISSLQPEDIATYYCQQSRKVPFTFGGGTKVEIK	zone 3
v37868 (antibody, V domains shown, OAA format as v34891; also called huTN228 Y1034A (VL) OAA) VH: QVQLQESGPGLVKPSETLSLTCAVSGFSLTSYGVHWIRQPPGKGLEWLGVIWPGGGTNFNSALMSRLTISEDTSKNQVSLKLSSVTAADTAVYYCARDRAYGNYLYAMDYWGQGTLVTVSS VL: DIQMTQSPSSLSASVGDRVTITCRASESVEYAVTSLMQWYQQKPGKAPKLLIYAASNVDSGVPSRFSGSGSGTDFTLTISSLQPEDIATYYCQQSRKVPFTFGGGTKVEIK	zone 3
v34891 (parental huTN228 OAA) (antibody, V domains shown, one-arm Fab antibody (OAA) format; also called huTN228 parental one-arm Fab antibody) VH: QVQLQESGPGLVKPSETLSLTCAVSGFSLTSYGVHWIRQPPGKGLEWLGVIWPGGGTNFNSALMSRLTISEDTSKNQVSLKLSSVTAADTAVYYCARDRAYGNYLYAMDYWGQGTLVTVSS VL: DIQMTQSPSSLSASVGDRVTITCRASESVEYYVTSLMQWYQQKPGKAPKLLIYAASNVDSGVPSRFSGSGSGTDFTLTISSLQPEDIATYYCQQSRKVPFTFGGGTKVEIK	zone 2

Exam item: Which class holds v37841 (antibody, V domains shown, OAA format as v34891; also called huTN228 S1029A (VH) OAA) VH: QVQLQESGPGLVKPSETLSLTCAVSGFALTSYGVHWIRQPPGKGLEWLGVIWPGGGTNFNSALMSRLTISEDTSKNQVSLKLSSVTAADTAVYYCARDRAYGNYLYAMDYWGQGTLVTVSS VL: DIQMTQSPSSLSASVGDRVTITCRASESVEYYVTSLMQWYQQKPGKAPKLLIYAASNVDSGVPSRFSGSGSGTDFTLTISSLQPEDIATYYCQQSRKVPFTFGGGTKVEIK ?
Marked response: zone 1

Exam item: Consider v37869 (antibody, V domains shown, OAA format as v34891; also called huTN228 V1035A (VL) OAA) VH: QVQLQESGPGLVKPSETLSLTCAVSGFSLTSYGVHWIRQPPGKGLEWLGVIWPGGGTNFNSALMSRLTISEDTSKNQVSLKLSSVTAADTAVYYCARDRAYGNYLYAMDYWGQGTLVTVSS VL: DIQMTQSPSSLSASVGDRVTITCRASESVEYYATSLMQWYQQKPGKAPKLLIYAASNVDSGVPSRFSGSGSGTDFTLTISSLQPEDIATYYCQQSRKVPFTFGGGTKVEIK . To which Fold-change from WT class does it belong?
Marked response: zone 3

Exam item: Band of v37883 (antibody, V domains shown, OAA format as v34891; also called huTN228 N1111AQ (VH) OAA) VH: QVQLQESGPGLVKPSETLSLTCAVSGFSLTSYGVHWIRQPPGKGLEWLGVIWPGGGTNFNSALMSRLTISEDTSKNQVSLKLSSVTAADTAVYYCARDRAYGQYLYAMDYWGQGTLVTVSS VL: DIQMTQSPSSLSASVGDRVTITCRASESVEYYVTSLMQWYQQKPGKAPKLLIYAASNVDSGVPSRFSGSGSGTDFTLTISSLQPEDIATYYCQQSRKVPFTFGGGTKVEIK ?
Marked response: zone 2

Exam item: Each binder maps to one class by Fold-change from WT. Which class for v37884 (antibody, V domains shown, OAA format as v34891; also called huTN228 L1112AI (VH) OAA) VH: QVQLQESGPGLVKPSETLSLTCAVSGFSLTSYGVHWIRQPPGKGLEWLGVIWPGGGTNFNSALMSRLTISEDTSKNQVSLKLSSVTAADTAVYYCARDRAYGNYIYAMDYWGQGTLVTVSS VL: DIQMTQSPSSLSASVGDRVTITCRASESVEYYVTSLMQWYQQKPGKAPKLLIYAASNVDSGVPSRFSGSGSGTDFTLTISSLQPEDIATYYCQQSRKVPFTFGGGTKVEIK ?
Marked response: zone 2
